Overview of reported logP across a group of compounds:

CCc1ccccc1N1C(=O)CCC1=O = 0.64
O=S1(=O)N=C(c2ccccc2)Nc2ccccc21 = 1.78
CNC(=O)Oc1cccc(I)c1 = 2.52
COc1cc(C=C[N+](=O)[O-])ccc1O = 1.88
COP(=O)(Oc1cc(Cl)c(Br)cc1Cl)c1ccccc1 (stereo not drawn) = 4.58

Alright, here's another compound for you.
Inquiry: Tell me the measured logP of CSCC1=C(C(=O)O)N2C(=O)C(NC(=O)Cc3cccs3)C2SC1 (stereo not drawn) , please.
Reply text: 1.01

###

Overview of reported logP across a group of molecules:
Respond numerically, and do not add a unit to the figure.

Would you please look over these solved cases?
CC(C)(C)C(=O)C(C#N)=NNc1cccc(Cl)c1 = 4.62
O=[N+]([O-])c1nccn1CC(O)COCC(F)(F)F (centres undefined) = 0.52
NS(=O)(=O)c1cccc(OC(=O)CNC(=O)c2ccccc2)c1 = 0.84
CC(=O)c1cccc(N2C(N)=NC(N)=NC2(C)C)c1 = -0.22
CCCC(=O)NC(=O)C1CCC1 = 0.41
CNP(=O)(OC)Oc1ccc(Cl)cc1 (centres undefined) = 1.85

Alright, here's another molecule for you.
Inquiry: Tell me the measured logP of "CN1CCN(C(=O)c2ccccc2)CC1" , please.
Reply text: 0.35

###

Overview of reported logP across a group of compounds:
Respond numerically, and do not add a unit to the figure.

Cc1ccnc2c(O)ccc(C)c12 = 2.71

Inquiry: Tell me the measured logP of "CN(C)Cc1ccco1" , please.
Reply text: 1.19

Inquiry: Tell me the measured logP of "CC(C)(C)C(=O)NN1CC=CCC1" , please.
Reply text: 1.03

Inquiry: Tell me the measured logP of "Cc1cc(C)cc(O[Si]23OCCN(CCO2)CCO3)c1" , please.
Reply text: 0.46

Inquiry: Tell me the measured logP of "Clc1ccc(-c2cc(Cl)ccc2Cl)cc1" , please.
Reply text: 5.69

Inquiry: Tell me the measured logP of "O=C(O)CCSc1c[nH]c2ccccc12" , please.
Reply text: 2.15

Inquiry: Tell me the measured logP of OCC1OC(Oc2ccc(I)cc2)C(O)C(O)C1O (configuration not stated) , please.
Reply text: 0.75

###

Overview of reported logP across a group of molecules:
Respond numerically, and do not add a unit to the figure.

Would you please look over these solved cases?
O=NN(CCCl)C(=O)NC1CS(=O)(=O)CS(=O)(=O)C1 = -0.94
CCOC(=O)C(C#N)=NNc1ccc(Cl)c(Cl)c1 = 4.66
COc1cc(S(=O)(=O)CC(O)c2ccccc2)cc(OC)c1OC (stereo not drawn) = 1.65
COC(=O)C(C#N)=NNc1c(Cl)cc(C(F)(F)F)cc1Cl = 4.36
Cc1ccc(CN(C)N=Nc2ccc(C(=O)O)cc2)cc1 = 4.75

Inquiry: Tell me the measured logP of "O=[N+]([O-])c1ccc(C=Cc2nccc(Cl)n2)o1" , please.
Reply text: 1.31

Inquiry: Tell me the measured logP of OC1C(Cl)C(Cl)C(Cl)C(Cl)C1Cl (stereo not drawn) , please.
Reply text: 2.54

Inquiry: Tell me the measured logP of "O=[N+]([O-])c1cnc(NC2=NCCN2CCO)s1" , please.
Reply text: 1.23

Inquiry: Tell me the measured logP of "Cc1cccc(C)c1NC(=O)CN(C)C" , please.
Reply text: 0.94

Inquiry: Tell me the measured logP of "CS(=O)(=O)CCn1ccnc1[N+](=O)[O-]" , please.
Reply text: -1.3

###

Overview of reported logP across a group of molecules:

Would you please look over these solved cases?
CC1(C)CCCC(C)(C)N1N=O = 2.49
COc1cc(Cc2cnc(N)nc2N)cc(OC)c1OCc1ccccc1 = 2.46
COP(=O)(NC(C)(C)C)SC (stereo unspecified) = 0.96
COc1nc(-c2ccccc2)c2ccccc2n1 = 3.5
O=[N+]([O-])c1nccn1CCCOc1ccccc1 = 2.38
CSC(C)=NOC(=O)N(C)SN(C)C(=O)c1ccc(C)cc1 = 2.5
O=C1CCC(=O)N1c1ccccc1Cl = 0.56
CCCSC1OC(CO)C(O)C(O)C1O (stereo unspecified) = -1.18
COc1ccc(Cc2cnc(N)nc2N)cc1N = 0.76
CC1(C)SC2C(NC(=O)C(Cl)c3ccccc3)C(=O)N2C1C(=O)O (stereo unspecified) = 2.3

Inquiry: Tell me the measured logP of "Cc1ccc(C(=N)c2ccc(C)cc2)cc1" , please.
Reply text: 3.71

Inquiry: Tell me the measured logP of "Cc1nnc(C=NO)s1" , please.
Reply text: 0.78

Inquiry: Tell me the measured logP of "COc1cc(S(=O)(=O)CCO)cc(OC)c1OC" , please.
Reply text: 0.18

Inquiry: Tell me the measured logP of "COc1cc(Cc2cnc(N)nc2N)cc(OC)c1N" , please.
Reply text: 0.83

Inquiry: Tell me the measured logP of "O=[N+]([O-])C=Cc1ccccc1[N+](=O)[O-]" , please.
Reply text: 1.8

###

Overview of reported logP across a group of molecules:
Respond numerically, and do not add a unit to the figure.

Would you please look over these solved cases?
CC1=NS(=O)(=O)c2ccc(Cl)cc2N1 = 1.21
O=C(NO)Nc1ccc(Cl)cc1 = 1.39
CC(=O)Oc1ccccc1F = 1.76
Cc1nnc(N)o1 = -0.92
CC1=Nc2c(Br)cc(Cl)cc2S(=O)(=O)N1 = 1.65
CC12CC3CC(C1)CC(N)(C3)C2 = 3.01
CCOP(=S)(OCC)Oc1ccc(SC)cc1Cl = 4.4
CN(Cc1ccc(C#N)cc1)N=Nc1ccc(C(=O)O)cc1 = 3.6

Inquiry: Tell me the measured logP of "O=NN1CCC(=O)CC1" , please.
Reply text: -0.47

Inquiry: Tell me the measured logP of "Nc1nc(N)nc(-c2cc(Cl)ccc2Br)n1" , please.
Reply text: 1.85

Inquiry: Tell me the measured logP of "O=C1CCC(=O)N1c1ccc(C(F)(F)F)cc1" , please.
Reply text: 1.45

Inquiry: Tell me the measured logP of "CCOC(=O)CN(C(=O)CCl)c1ccccc1Cl" , please.
Reply text: 2.3

Inquiry: Tell me the measured logP of "CC1=Nc2ccc(Br)cc2S(=O)(=O)N1" , please.
Reply text: 1.37

Inquiry: Tell me the measured logP of "CCCCCOn1c(=O)[nH]c(C)c(Br)c1=O" , please.
Reply text: 1.69

Inquiry: Tell me the measured logP of "COC(=O)C(C#N)=NNc1ccccc1C(F)(F)F" , please.
Reply text: 3.7

Inquiry: Tell me the measured logP of "O=CNc1nccs1" , please.
Reply text: 0.54

Inquiry: Tell me the measured logP of CCCCCC1(CC)C(=O)NC(=O)N(C)C1=O (centres undefined) , please.
Reply text: 2.45

Inquiry: Tell me the measured logP of "Cc1ccc(NC(=O)c2ccco2)c(O)c1" , please.
Reply text: 2.84

Inquiry: Tell me the measured logP of "COc1cc(C)c(Cc2cnc(N)nc2N)cc1OC" , please.
Reply text: 1.23

Inquiry: Tell me the measured logP of COP(=O)(NC(C)(C)C)Oc1cc(Cl)c(Cl)cc1Cl (centres undefined) , please.
Reply text: 3.83

Inquiry: Tell me the measured logP of "CS(=O)(=O)c1ccc(NS(=O)(=O)C(F)(F)F)cc1" , please.
Reply text: 1.99

Inquiry: Tell me the measured logP of "COc1cc(-n2nc(C)cc2OC)nc(C)n1" , please.
Reply text: 1.54

Inquiry: Tell me the measured logP of "CSC(C)=NOC(=O)N(C)SN(C)C(=O)c1ccc(Cl)cc1Cl" , please.
Reply text: 3.2

###

Lab note: cut-off is 0.9. Strictly less in logP is 1. Exactly 0.9 or more is -1.

CC(=O)c1ccccc1OC(=O)N(C)C = -1
COC1C(Cl)C(Cl)C(Cl)C(Cl)C1OC (configuration not stated) = -1
CC1=Nc2ccc(S(=O)(=O)N(C)C)cc2S(=O)(=O)N1 = 1
CNc1cc(Cc2cnc(N)nc2N)cc(N(C)C(C)=O)c1C = 1
N=C(N)NC(=O)Nc1ccc(Cl)c(Cl)c1 = -1

Inquiry: Decide: logP of "O=C1CN=C(c2ccc(C(F)(F)F)cc2)c2ccccc2N1" strictly below 0.9?
Reply text: -1

Inquiry: Decide: logP of "Clc1cccc(-c2ccccc2)c1Cl" strictly below 0.9?
Reply text: -1

###

Threshold rule: logP greater than or equal to 2 is met; below that, not met.

CCOP(=S)(OCC)SCS(=O)(=O)C(C)(C)C = met
CCSc1nnc(C(C)C)c(=O)n1N = not met
CN1C(=O)CN=C(c2ccccc2F)c2cc(I)ccc21 = met
CC1=NS(=O)(=O)c2c(Cl)cccc2N1 = not met
O=S(=O)(Nc1ccccc1)c1cccc2cccnc12 = not met
COCN1C(=O)CN=C(c2ccccc2F)c2cc(N)ccc21 = not met

Consider now this further compound.
Inquiry: Could you verify whether the entry "CN(Cc1ccc([N+](=O)[O-])cc1)N=Nc1ccc(C(=O)O)cc1" shows logP of no less than 2?
Reply text: met
